Provide the recorded Ratio IC50 for the entries that follow.
# Species on record: Homo sapiens
# Measurement Notes: Selectivity ratio of IC50 for YES1 (unknown origin) to IC50 for BTK (unknown origin)
Answers are plain numbers.

These recorded examples may help you get a feel for the data.
COCC(=O)N1CCC[C@@H](c2nc(-c3ccc(C(=O)Nc4cc(C(F)(F)F)ccn4)cc3F)c3c(N)nccn23)C1 :: 167
CC(C)C(=O)N1CCO[C@@H](c2nc(-c3ccc(C(=O)Nc4cc(C(F)(F)F)ccn4)cc3F)c3c(N)nccn23)C1 :: 605
Nc1nccn2c([C@@H]3CCCN(C4CCOCC4)C3)nc(-c3ccc(C(=O)Nc4cc(C(F)(F)F)ccn4)cc3F)c12 :: 38

In the following, a different compound is considered.
Q: Would you kindly share the measured Ratio IC50 for "COCC(=O)N1CCO[C@@H](c2nc(-c3ccc(C(=O)Nc4cc(C(F)(F)F)ccn4)cc3F)c3c(N)nccn23)C1" ?
Result: 198
